- Procedure Details: self-splicing fitness, log relative to wild type (ln ratio); higher = more splicing; Tetrahymena group I intron in knt gene, E. coli kanamycin selection, DiMSum; sequences stand for … in CUCUCU…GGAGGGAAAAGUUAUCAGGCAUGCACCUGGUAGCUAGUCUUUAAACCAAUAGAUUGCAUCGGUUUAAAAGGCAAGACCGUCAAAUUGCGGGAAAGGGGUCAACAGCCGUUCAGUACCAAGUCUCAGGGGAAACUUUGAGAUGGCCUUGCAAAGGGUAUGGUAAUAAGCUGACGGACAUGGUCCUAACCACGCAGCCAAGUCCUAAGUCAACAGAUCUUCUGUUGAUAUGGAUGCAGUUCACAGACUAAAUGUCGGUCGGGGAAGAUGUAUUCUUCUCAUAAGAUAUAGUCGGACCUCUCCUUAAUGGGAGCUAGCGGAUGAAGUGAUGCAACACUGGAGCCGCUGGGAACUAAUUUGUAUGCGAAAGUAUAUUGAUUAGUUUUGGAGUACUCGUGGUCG;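 note: selection with 25 µg/mL kanamycin versus none on LB agar overnight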
- Settings: 30 °C
# self-splicing fitness (ln) >= -3 gives Condition met, anything below gives Condition not met

State whether the measured self-splicing fitness (ln) reaches -3, counting equality as reaching it, for UGUGAGCAAUAUUACGAUAG
Condition met

State whether the measured self-splicing fitness (ln) reaches -3, counting equality as reaching it, for AGAUAGCAAUAUUACGGAUU
Condition met

State whether the measured self-splicing fitness (ln) reaches -3, counting equality as reaching it, for UCUCAGCAAUAUUACGAUCG
Condition met

State whether the measured self-splicing fitness (ln) reaches -3, counting equality as reaching it, for UUCCAGCAAUAUUACGCGAU
Condition met

State whether the measured self-splicing fitness (ln) reaches -3, counting equality as reaching it, for ACCAAGCAAUAUUACGGGGG
Condition met

State whether the measured self-splicing fitness (ln) reaches -3, counting equality as reaching it, for CGCAAGCAAUAUUACGGUUG
Condition met

State whether the measured self-splicing fitness (ln) reaches -3, counting equality as reaching it, for AUAGAGCAAUAUUACGCCUC
Condition met

State whether the measured self-splicing fitness (ln) reaches -3, counting equality as reaching it, for CAACAGCAAUAUUACGGUUC
Condition met

State whether the measured self-splicing fitness (ln) reaches -3, counting equality as reaching it, for ACUGAGCAAUAUUACGAUUA
Condition not met

State whether the measured self-splicing fitness (ln) reaches -3, counting equality as reaching it, for GUAUAGCAAUAUUACGCGCU
Condition met

State whether the measured self-splicing fitness (ln) reaches -3, counting equality as reaching it, for GCUGAGCAAUAUUACGGUGG
Condition not met

State whether the measured self-splicing fitness (ln) reaches -3, counting equality as reaching it, for UAAGAGCAAUAUUACGGAAC
Condition met

State whether the measured self-splicing fitness (ln) reaches -3, counting equality as reaching it, for CGGGAGCAAUAUUACGUAUA
Condition not met

State whether the measured self-splicing fitness (ln) reaches -3, counting equality as reaching it, for GUACAGCAAUAUUACGCGGU
Condition not met

State whether the measured self-splicing fitness (ln) reaches -3, counting equality as reaching it, for CAUUAGCAAUAUUACGAGAG
Condition met

State whether the measured self-splicing fitness (ln) reaches -3, counting equality as reaching it, for GAGUAGCAAUAUUACGUUUG
Condition not met

###

Give measured self-splicing fitness (ln) for each item. Keep answers brief.
- Procedure Details: self-splicing fitness, log relative to wild type (ln ratio); higher = more splicing; Tetrahymena group I intron in knt gene, E. coli kanamycin selection, DiMSum; sequences stand for … in CUCUCU…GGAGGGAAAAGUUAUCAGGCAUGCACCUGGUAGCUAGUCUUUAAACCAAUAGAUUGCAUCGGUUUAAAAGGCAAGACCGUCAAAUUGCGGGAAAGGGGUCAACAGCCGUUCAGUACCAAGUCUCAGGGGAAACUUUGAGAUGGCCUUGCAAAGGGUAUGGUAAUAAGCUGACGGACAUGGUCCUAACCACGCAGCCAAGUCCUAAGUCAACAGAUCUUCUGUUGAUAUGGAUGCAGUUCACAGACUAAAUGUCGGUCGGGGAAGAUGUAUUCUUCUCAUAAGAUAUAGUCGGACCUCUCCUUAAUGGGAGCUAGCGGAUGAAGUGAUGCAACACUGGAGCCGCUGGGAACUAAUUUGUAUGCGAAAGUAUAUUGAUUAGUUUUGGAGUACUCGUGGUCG
- Settings: 30 °C

Value lookup for self-splicing fitness (ln); key = CCCAAGCAAUAUUACGAUGC
-4.67

Value lookup for self-splicing fitness (ln); key = GCAUAGCAAUAUUACGUAUA
-3.23

Value lookup for self-splicing fitness (ln); key = UCCCAGCAAUAUUACGUGUA
0.0644

Value lookup for self-splicing fitness (ln); key = GGCCAGCAAUAUUACGUUCA
-3.23

Value lookup for self-splicing fitness (ln); key = AUCCAGCAAUAUUACGUCAC
-2.35

Value lookup for self-splicing fitness (ln); key = GGAUAGCAAUAUUACGUGCG
-0.974

Value lookup for self-splicing fitness (ln); key = AGCAAGCAAUAUUACGAGGC
-4.52

Value lookup for self-splicing fitness (ln); key = CCUGAGCAAUAUUACGUGAA
-4.54

###

Give measured self-splicing fitness (ln) for each item. Keep answers brief.
- Procedure Details: self-splicing fitness, log relative to wild type (ln ratio); higher = more splicing; Tetrahymena group I intron in knt gene, E. coli kanamycin selection, DiMSum; sequences stand for … in CUCUCU…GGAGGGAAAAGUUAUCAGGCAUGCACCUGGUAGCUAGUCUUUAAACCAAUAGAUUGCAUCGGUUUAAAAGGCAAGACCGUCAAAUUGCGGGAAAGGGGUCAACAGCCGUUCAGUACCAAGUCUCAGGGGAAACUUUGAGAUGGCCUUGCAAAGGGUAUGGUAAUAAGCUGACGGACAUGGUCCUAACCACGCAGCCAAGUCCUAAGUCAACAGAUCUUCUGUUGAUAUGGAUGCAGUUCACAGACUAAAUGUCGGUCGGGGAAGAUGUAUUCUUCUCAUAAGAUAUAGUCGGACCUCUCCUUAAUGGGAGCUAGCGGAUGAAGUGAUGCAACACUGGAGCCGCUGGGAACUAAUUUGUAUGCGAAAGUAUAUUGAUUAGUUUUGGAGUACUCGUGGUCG
- Settings: 30 °C
Hey, just send me the number, nothing else.

Value lookup for self-splicing fitness (ln); key = UUCAAGCAAUAUUACGCUAC
-3

Value lookup for self-splicing fitness (ln); key = CGUUAGCAAUAUUACGAUUC
-3.09

Value lookup for self-splicing fitness (ln); key = CAUCAGCAAUAUUACGAAGA
-2.97

Value lookup for self-splicing fitness (ln); key = AGCGAGCAAUAUUACGUCCU
-0.026

Value lookup for self-splicing fitness (ln); key = GGAAAGCAAUAUUACGAGGA
-2.88

Value lookup for self-splicing fitness (ln); key = UCUGAGCAAUAUUACGCUCC
-2.04

Value lookup for self-splicing fitness (ln); key = AUUGAGCAAUAUUACGUGCU
-3.03

Value lookup for self-splicing fitness (ln); key = UCUCAGCAAUAUUACGACCA
-0.757

Value lookup for self-splicing fitness (ln); key = GCCCAGCAAUAUUACGCAUU
-0.902

Value lookup for self-splicing fitness (ln); key = ACCGAGCAAUAUUACGAUAC
-4.32

Value lookup for self-splicing fitness (ln); key = AUGCAGCAAUAUUACGGGAG
-3.13

Value lookup for self-splicing fitness (ln); key = CCGAAGCAAUAUUACGCAGA
-2.91

Value lookup for self-splicing fitness (ln); key = AGAGAGCAAUAUUACGCAAA
-2.1

Value lookup for self-splicing fitness (ln); key = GCUUAGCAAUAUUACGCCGG
-1.97

Value lookup for self-splicing fitness (ln); key = UACAAGCAAUAUUACGUAGG
-4

Value lookup for self-splicing fitness (ln); key = GGGUAGCAAUAUUACGGGCG
-0.346
